Values compiled from patent US7880010B2.

# testedOn: human β1 adrenergic receptor (Homo sapiens, UniProt P08588)
# Sequence (P08588 whole entry): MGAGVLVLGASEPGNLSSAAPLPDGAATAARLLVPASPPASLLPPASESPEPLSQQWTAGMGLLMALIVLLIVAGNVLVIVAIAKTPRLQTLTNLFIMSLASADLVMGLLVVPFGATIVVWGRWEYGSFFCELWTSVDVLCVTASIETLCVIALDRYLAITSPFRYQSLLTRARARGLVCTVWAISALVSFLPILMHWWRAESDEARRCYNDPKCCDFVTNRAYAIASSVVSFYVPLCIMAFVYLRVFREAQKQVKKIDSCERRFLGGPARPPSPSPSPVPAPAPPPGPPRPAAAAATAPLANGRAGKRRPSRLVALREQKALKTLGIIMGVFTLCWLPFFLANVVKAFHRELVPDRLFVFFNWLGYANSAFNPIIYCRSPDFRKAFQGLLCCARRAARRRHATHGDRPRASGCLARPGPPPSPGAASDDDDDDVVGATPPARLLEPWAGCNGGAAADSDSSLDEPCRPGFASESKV
# protocolDescription: Whole-cell cAMP Flashplate assay, heterologously expressed receptor
# cond: HEK-293 cells
pEC50: −log10 of the molar value.
readout: pEC50

Using known records, supply pEC50 for `Cc1cc(NC(=O)CCN2CCC(OC(=O)Nc3ccccc3-c3ccccc3)CC2)c(C)cc1CNC[C@H](O)c1ccc(O)c(NC=O)c1`
~7.52

###

# testedOn: human β2 adrenergic receptor (Homo sapiens, UniProt P07550)
pKi: −log10 of the molar value.
readout: pKi

Look up and report pKi, with human β2 adrenergic receptor (Homo sapiens, UniProt P07550) as system, for Cc1cc(NC(=O)CCN2CCC(OC(=O)Nc3ccccc3-c3ccccc3)CC2)c(C)cc1CNC[C@H](O)c1ccc(O)c(NC=O)c1 [compound of formula I]
> 8.00

###

# testedOn: human β1 adrenergic receptor (Homo sapiens)
pKi: −log10 of the molar value.
readout: pKi

In one line, give reported pKi of the entry `Cc1cc(NC(=O)CCN2CCC(OC(=O)Nc3ccccc3-c3ccccc3)CC2)c(C)cc1CNC[C@H](O)c1ccc(O)c(NC=O)c1` .
< 6.00

###

# testedOn: human β3 adrenergic receptor (Homo sapiens)
# Sequence (P13945 whole entry): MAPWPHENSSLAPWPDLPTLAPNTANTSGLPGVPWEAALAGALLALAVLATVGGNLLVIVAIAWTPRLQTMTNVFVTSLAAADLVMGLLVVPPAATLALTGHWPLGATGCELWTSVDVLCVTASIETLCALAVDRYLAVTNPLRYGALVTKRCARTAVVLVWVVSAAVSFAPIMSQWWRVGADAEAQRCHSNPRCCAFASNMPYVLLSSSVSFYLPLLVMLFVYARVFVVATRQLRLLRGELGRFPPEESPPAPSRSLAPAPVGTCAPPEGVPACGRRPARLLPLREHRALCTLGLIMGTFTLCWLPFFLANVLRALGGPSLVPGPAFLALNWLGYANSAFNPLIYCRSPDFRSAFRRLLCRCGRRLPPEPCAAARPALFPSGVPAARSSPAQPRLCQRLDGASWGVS
# protocolDescription: Whole-cell cAMP Flashplate assay, heterologously expressed receptor
# cond: CHO-K1 cells
readout: EC50

Tell us which EC50 value is on record for `Cc1cc(NC(=O)CCN2CCC(OC(=O)Nc3ccccc3-c3ccccc3)CC2)c(C)cc1CNC[C@H](O)c1ccc(O)c(NC=O)c1`
> 0.7 µM

###

# testedOn: human β2 adrenergic receptor (endogenous, BEAS-2B cells) (Homo sapiens, UniProt P07550)
# Construct: using a cell line expressing endogenous levels of the β2 adrenergic receptor
# Sequence (P07550 whole entry): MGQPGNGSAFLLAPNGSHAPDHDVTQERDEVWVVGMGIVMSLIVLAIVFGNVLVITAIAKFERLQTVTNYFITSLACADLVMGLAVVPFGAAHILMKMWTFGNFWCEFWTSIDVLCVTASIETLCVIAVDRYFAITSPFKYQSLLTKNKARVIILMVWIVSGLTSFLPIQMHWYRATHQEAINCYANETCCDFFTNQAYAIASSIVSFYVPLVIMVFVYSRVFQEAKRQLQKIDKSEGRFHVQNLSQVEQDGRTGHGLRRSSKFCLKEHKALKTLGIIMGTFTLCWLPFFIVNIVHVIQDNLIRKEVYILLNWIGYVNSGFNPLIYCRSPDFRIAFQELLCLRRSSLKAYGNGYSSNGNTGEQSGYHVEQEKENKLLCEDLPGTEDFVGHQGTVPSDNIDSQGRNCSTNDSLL
# protocolDescription: Whole-cell cAMP Flashplate assay with lung epithelial cell line (BEAS-2B)
# cond: cAMP
pEC50: −log10 of the molar value.
readout: pEC50

Give recorded pEC50. `Cc1cc(NC(=O)CCN2CCC(OC(=O)Nc3ccccc3-c3ccccc3)CC2)c(C)cc1CNC[C@H](O)c1ccc(O)c(NC=O)c1`
> 8.00

###

# testedOn: human β2 adrenergic receptor (Homo sapiens)
# protocolDescription: Whole-cell cAMP Flashplate assay, heterologously expressed receptor
# cond: HEK-293 cells
readout: EC50

Hello, please tell me recorded EC50 for this one: Cc1cc(NC(=O)CCN2CCC(OC(=O)Nc3ccccc3-c3ccccc3)CC2)c(C)cc1CNC[C@H](O)c1ccc(O)c(NC=O)c1 [compound of formula I]
< 10 nM
